System: Key Broadleaf Weed and Crop Species
Test: Post-Emergent Test II: postemergent herbicidal activity, visual rating after 14 d (Table 7)
Format: in vivo
Conditions: post-emergence, 336 h, AMARE: redroot pigweed (Amaranthus retroflexus), 140 g ai/ha, read-out: Visual Growth Reduction (%) 14 Days After Application AMARE
PROPERTY_MEASURED: pest or weed control at 140 g/ha

{"SUBSTANCE_SMILES": "COC(=O)c1nc(-c2cccc3c2OC(F)(F)O3)cc(N)c1Cl", "TARGET_OR_SYSTEM": "Key Broadleaf Weed and Crop Species", "RESULT": "95 to 100%"}
{"SUBSTANCE_SMILES": "COC(=O)c1nc(-c2ccc3c(c2F)OC(F)(F)C3(F)F)cc(N)c1Cl", "TARGET_OR_SYSTEM": "Key Broadleaf Weed and Crop Species", "RESULT": "60 to 74%"}
{"SUBSTANCE_SMILES": "Nc1c(F)c(-c2ccc(Cl)c3c2OC(F)(F)O3)nc(C(=O)O)c1Cl", "TARGET_OR_SYSTEM": "Key Broadleaf Weed and Crop Species", "RESULT": "95 to 100%"}
{"SUBSTANCE_SMILES": "COC(=O)c1nc(-c2cccc3c2OCO3)nc(N)c1OC", "TARGET_OR_SYSTEM": "Key Broadleaf Weed and Crop Species", "RESULT": "30 to 44%"}
{"SUBSTANCE_SMILES": "COC(=O)c1nc(-c2ccc3c(c2)SCO3)c(F)c(N)c1Cl", "TARGET_OR_SYSTEM": "Key Broadleaf Weed and Crop Species", "RESULT": "45 to 59%"}
{"SUBSTANCE_SMILES": "Nc1c(F)c(-c2ccc3c(c2)COC3)nc(C(=O)O)c1Cl", "TARGET_OR_SYSTEM": "Key Broadleaf Weed and Crop Species", "RESULT": "0 to 29%"}
{"SUBSTANCE_SMILES": "COC(=O)c1nc(-c2ccc3c(c2)OCC3)c(F)c(N)c1Cl", "TARGET_OR_SYSTEM": "Key Broadleaf Weed and Crop Species", "RESULT": "95 to 100%"}
{"SUBSTANCE_SMILES": "COC(=O)c1nc(-c2cccc3c2OCO3)cc(N)c1Cl", "TARGET_OR_SYSTEM": "Key Broadleaf Weed and Crop Species", "RESULT": "60 to 74%"}
{"SUBSTANCE_SMILES": "Nc1c(F)c(-c2ccc3c(c2)OCC3)nc(C(=O)O)c1Cl", "TARGET_OR_SYSTEM": "Key Broadleaf Weed and Crop Species", "RESULT": "95 to 100%"}
{"SUBSTANCE_SMILES": "COC(=O)c1nc(-c2ccc(Cl)c3c2OC(F)(F)O3)c(C)c(N)c1Cl", "TARGET_OR_SYSTEM": "Key Broadleaf Weed and Crop Species", "RESULT": "95 to 100%"}
{"SUBSTANCE_SMILES": "COC(=O)c1nc(-c2ccc3c(c2)COC3)c(F)c(N)c1Cl", "TARGET_OR_SYSTEM": "Key Broadleaf Weed and Crop Species", "RESULT": "0 to 29%"}
